Values from ChEMBL document CHEMBL4689842

- System: Fibroblast
- Measurement protocol: Multiplex assay against human fibroblast
- Assay type: toxicity, cell-based
- Details: 24 h, 10 µM, compound concentration 10 uM, replicate 2
Could you please report measured Total Cell Count for the items listed next?
Numbers only.

- Compound: "CC(C)CC(=O)Nc1[nH]nc2c1CN(C(=O)C1CCN(C)CC1)C2(C)C"
  Total Cell Count: 64
- Compound: "O=C(c1cc2c(cc1F)OC(c1ccc(F)cc1)(c1ccc(Cl)cc1Cl)O2)N1CCOCC1 (centres undefined)"
  Total Cell Count: 58
- Compound: "COc1ccc(-c2ccc3ncc4c(c3c2)n(-c2ccc(N3CCNCC3)c(C(F)(F)F)c2)c(=O)n4C)cn1.O=C(O)/C=C\\C(=O)O"
  Total Cell Count: 614

Here is another compound to look at.
What Total Cell Count value was documented for this compound, COc1cc(Nc2nccc(-c3cnn4nc(OC)ccc34)n2)cc(C(F)(F)F)c1 ?
90

----------
- Test system: HEK-293T
- Measurement protocol: Multiplex assay against HEK293T
- Format: toxicity, cell-based
- Details: human, 24 h, 1 µM, compound concentration 1 uM, replicate 2
Measured endpoint: Population Membrane Permeable-Phenotype (%)
Numbers only, in %.

Check out these entries, answers already filled in.
- Compound: "O=C(c1cc2c(cc1F)OC(c1ccc(F)cc1)(c1ccc(Cl)cc1Cl)O2)N1CCOCC1 (centres undefined)"
  Recorded measurement: 1
- Compound: "CCCSc1nc(N[C@@H]2C[C@H]2c2ccc(F)c(F)c2)c2nnn([C@@H]3C[C@H](OCCO)[C@@H](O)[C@H]3O)c2n1 [TICAGRELOR]"
  Recorded measurement: 7
- Compound: "Cc1ccc2c(c1)c1c(n2CCc2ccc(C)nc2)CCN(C)C1 [LATREPIRDINE]"
  Recorded measurement: 11

Here is another compound to look at.
Field: Population Membrane Permeable-Phenotype (%) (HEK-293T). Entry: CC1=C(C(=O)Nc2cc3cn[nH]c3cc2F)C(c2ccc(C(F)(F)F)cc2)CC(=O)N1 (centres undefined)
14

----------
Could you please report measured Population Healthy Nuclei (%) for the items listed next?
- System: HEK-293T
- Measurement protocol: Multiplex assay against HEK293T
- Assay type: toxicity, cell-based
- Details: human, 12 h, 1 µM, compound concentration 1 uM, replicate 1
Record the result as a number with its unit.

Check out these entries, answers already filled in.
- Compound: "Cc1ccc(C)c(Oc2ccncc2C(=O)N2CCN(C3CC3)c3ccccc32)c1"
  Recorded measurement: "48%"
- Compound: "Cc1ccc2c(c1)c1c(n2CCc2ccc(C)nc2)CCN(C)C1 [LATREPIRDINE]"
  Recorded measurement: "39%"
- Compound: "COC(=O)C1=C(C)NC(C)=C(C(=O)OCCCN2CCC(c3ccccc3)(c3ccccc3)CC2)[C@H]1c1cccc([N+](=O)[O-])c1"
  Recorded measurement: "34%"
- Compound: "CC(C)NC(=O)N1CC[C@H](NC2=Nc3cc(F)ccc3N(CC(F)F)c3ccc(Cl)cc32)C1"
  Recorded measurement: "34%"
- Compound: "C=CC(=O)Nc1cccc(Oc2nc(Nc3ccc(N4CCN(C)CC4)cc3OC)ncc2Cl)c1"
  Recorded measurement: "27%"

Dear colleague, could you please provide Population Healthy Nuclei (%) for the compounds listed below?
1. CNC(=O)Nc1ccc(-c2nc(N3CC4CCC(C3)O4)c3cnn(C4CCC5(CC4)OCCO5)c3n2)cc1
2. COc1cc(Nc2nccc(-c3cnn4nc(OC)ccc34)n2)cc(C(F)(F)F)c1
3. Cl.O=C(O)c1cc(-c2ccc(C3CCNCC3)cc2)c2ccc(-c3ccc(C(F)(F)F)cc3)cc2c1
4. COc1ccc(-c2ccc3ncc4c(c3c2)n(-c2ccc(N3CCNCC3)c(C(F)(F)F)c2)c(=O)n4C)cn1.O=C(O)/C=C\C(=O)O
5. CCc1ccc(OCc2ccccc2C(=O)Nc2ccc3nc(C)cc(N)c3c2)cc1.Cl
6. Cc1ccccc1C(c1ccccc1C)N1C2CCC1CC(O)(c1ccccc1)C2 (configuration not stated)
7. CC(C)(C)NC[C@H](O)COc1nsnc1N1CCOCC1
8. CNC(=O)Nc1ccc2c(c1)[C@@]1(CC2)OC(=O)N(CC(=O)N(Cc2ccc(F)cc2)[C@@H](C)C(F)(F)F)C1=O

6%
19%
21%
2%
7%
40%
39%
47%

Dear colleague, could you please provide Population Healthy Nuclei (%) for the compounds listed below?
1. CC(C)CC(=O)Nc1[nH]nc2c1CN(C(=O)C1CCN(C)CC1)C2(C)C
2. COc1cc2ncn(-c3cc(OCc4ccccc4C(F)(F)F)c(C(N)=O)s3)c2cc1OC [GW843682X]
3. CN1CCN(Cc2ccc(Nc3ncc(Cl)c(Nc4ccccc4S(=O)(=O)N(C)C)n3)cc2)CC1
4. Cc1nc(N2CC[C@H](O)C2)ncc1-c1cc(C(F)(F)F)cc2[nH]ncc12

72%
44%
42%
70%

----------
- Test system: U2OS
- Measurement protocol: Multiplex assay against U2OS
- Type: toxicity, cell-based
- Details: human, 12 h, 10 µM, compound concentration 10 uM, replicate 1
Criterion: Population Hoechst High Intensity Objects (%) strictly less than 8%. Met: MET. Not met: NOT MET.

- Molecule: "Cc1ccc(C)c(Oc2ccncc2C(=O)N2CCN(C3CC3)c3ccccc32)c1"
  Label class: "MET"

Would you kindly verify if Population Hoechst High Intensity Objects (%) of C[C@]12CC[C@@H]3c4ccc(O)cc4CC[C@H]3[C@@H]1CC[C@@H]2O is strictly less than 8%?
MET

Would you kindly verify if Population Hoechst High Intensity Objects (%) of CCc1nn(CCCN2CCN(c3cccc(Cl)c3)CC2)c(=O)n1CCOc1ccccc1.Cl [NEFAZODONE HYDROCHLORIDE] is strictly less than 8%?
MET

Would you kindly verify if Population Hoechst High Intensity Objects (%) of O=c1[nH]c2ccccc2n1C1CCN(Cc2ccc(-c3[nH]c4cc5ncnc5cc4nc3-c3ccccc3)cc2)CC1 is strictly less than 8%?
MET

Would you kindly verify if Population Hoechst High Intensity Objects (%) of CN1CCN(Cc2ccc(Nc3ncc(Cl)c(Nc4ccccc4S(=O)(=O)N(C)C)n3)cc2)CC1 is strictly less than 8%?
NOT MET

Would you kindly verify if Population Hoechst High Intensity Objects (%) of COC(=O)C1=C(C)NC(C)=C(C(=O)OCCCN2CCC(c3ccccc3)(c3ccccc3)CC2)[C@H]1c1cccc([N+](=O)[O-])c1 is strictly less than 8%?
MET

----------
- Test system: HEK-293T
- Measurement protocol: Multiplex assay against HEK293T
- Format: toxicity, cell-based
- Details: human, 24 h, 10 µM, compound concentration 10 uM, replicate 2
Measured endpoint: Population Normal (%)
Numbers only, in %.

- Compound: "COc1cc2ncn(-c3cc(OCc4ccccc4C(F)(F)F)c(C(N)=O)s3)c2cc1OC [GW843682X]"
  Population Normal (%): 96
- Compound: "CCc1ccc(OCc2ccccc2C(=O)Nc2ccc3nc(C)cc(N)c3c2)cc1.Cl"
  Population Normal (%): 73
- Compound: "Cc1ccc2c(c1)c1c(n2CCc2ccc(C)nc2)CCN(C)C1 [LATREPIRDINE]"
  Population Normal (%): 93

What Population Normal (%) value was documented for this compound, CNC(=O)Nc1ccc2c(c1)[C@@]1(CC2)OC(=O)N(CC(=O)N(Cc2ccc(F)cc2)[C@@H](C)C(F)(F)F)C1=O [A-486] ?
97

----------
Could you please report measured Population Pyknosed Nuclei (%) for the items listed next?
- System: U2OS
- Measurement protocol: Multiplex assay against U2OS
- Type: toxicity, cell-based
- Details: human, 12 h, 1 µM, compound concentration 1 uM, replicate 2
Record the result as a number with its unit.

- Compound: "COc1ccc(-c2ccc3ncc4c(c3c2)n(-c2ccc(N3CCNCC3)c(C(F)(F)F)c2)c(=O)n4C)cn1.O=C(O)/C=C\\C(=O)O"
  Measured endpoint: "Population Pyknosed Nuclei (%)"
  Recorded measurement: "29%"
- Compound: "CC1=C(C(=O)Nc2cc3cn[nH]c3cc2F)C(c2ccc(C(F)(F)F)cc2)CC(=O)N1 (stereo not drawn)"
  Measured endpoint: "Population Pyknosed Nuclei (%)"
  Recorded measurement: "4%"
- Compound: "CCc1ccc(OCc2ccccc2C(=O)Nc2ccc3nc(C)cc(N)c3c2)cc1.Cl"
  Measured endpoint: "Population Pyknosed Nuclei (%)"
  Recorded measurement: "33%"
- Compound: "COc1cc2ncn(-c3cc(OCc4ccccc4C(F)(F)F)c(C(N)=O)s3)c2cc1OC [GW843682X]"
  Measured endpoint: "Population Pyknosed Nuclei (%)"
  Recorded measurement: "9%"
- Compound: "Cl.O=C(O)c1cc(-c2ccc(C3CCNCC3)cc2)c2ccc(-c3ccc(C(F)(F)F)cc3)cc2c1"
  Measured endpoint: "Population Pyknosed Nuclei (%)"
  Recorded measurement: "5%"

Dear colleague, could you please provide Population Pyknosed Nuclei (%) for the compounds listed below?
1. O=c1cc(N2CCOCC2)oc2c(-c3cccc4c3sc3ccccc34)cccc12
2. CC(C)CC(=O)Nc1[nH]nc2c1CN(C(=O)C1CCN(C)CC1)C2(C)C
3. CCCSc1nc(N[C@@H]2C[C@H]2c2ccc(F)c(F)c2)c2nnn([C@@H]3C[C@H](OCCO)[C@@H](O)[C@H]3O)c2n1

1. 6%
2. 4%
3. 4%
